testDescription: Cmax in C57BL/6 mouse at 3 mg/kg, po administered as cassette dose
Format: ADME, organism-based
Design: dose 3 mg/kg, route oral
conditionLabel: in vivo
Entries and their Cmax values follow.

structureSmilesString: CC(=O)Nc1cc(-c2ccc(C#N)cc2C)n2ncnc2c1
Cmax: 5 µM
--
structureSmilesString: Cc1cc(C#N)ccc1-c1cccc2ncnn12
Cmax: 5.58 µM

Item under review: `N#Cc1ccc(-c2cccc3ncnn23)cc1` . Reported Cmax? 0.8 µM

Item under review: `Cc1cc(C#N)ccc1-c1cc(N)cc2ncnn12` . Reported Cmax? 14.8 µM

###

testDescription: Protein binding in mouse plasma
Assay type: ADME, cell-free
conditionLabel: read-out: PPB (converted)
quantityKind: fraction unbound

// solved cases for fraction unbound follow
structureSmilesString: Cc1cc(C#N)ccc1-c1cc(N)cc2ncnn12
quantityKind: fraction unbound
measuredResult: 0.302
//
structureSmilesString: N#Cc1ccc(-c2cccc3ncnn23)cc1
quantityKind: fraction unbound
measuredResult: 0.287
//
structureSmilesString: Cc1cc(C#N)ccc1-c1cccc2ncnn12
quantityKind: fraction unbound
measuredResult: 0.21

Would you kindly look at the next entry?
Item under review: `CC(=O)Nc1cc(-c2ccc(C#N)cc2C)n2ncnc2c1` . Reported fraction unbound? 0.486
